Each recorded value in this set is attributed to paper PMC6270011.

- targetOrSystem: urease enzyme (Canavalia ensiformis, UniProt P07374)
- Sequence (P07374 whole entry, looked up): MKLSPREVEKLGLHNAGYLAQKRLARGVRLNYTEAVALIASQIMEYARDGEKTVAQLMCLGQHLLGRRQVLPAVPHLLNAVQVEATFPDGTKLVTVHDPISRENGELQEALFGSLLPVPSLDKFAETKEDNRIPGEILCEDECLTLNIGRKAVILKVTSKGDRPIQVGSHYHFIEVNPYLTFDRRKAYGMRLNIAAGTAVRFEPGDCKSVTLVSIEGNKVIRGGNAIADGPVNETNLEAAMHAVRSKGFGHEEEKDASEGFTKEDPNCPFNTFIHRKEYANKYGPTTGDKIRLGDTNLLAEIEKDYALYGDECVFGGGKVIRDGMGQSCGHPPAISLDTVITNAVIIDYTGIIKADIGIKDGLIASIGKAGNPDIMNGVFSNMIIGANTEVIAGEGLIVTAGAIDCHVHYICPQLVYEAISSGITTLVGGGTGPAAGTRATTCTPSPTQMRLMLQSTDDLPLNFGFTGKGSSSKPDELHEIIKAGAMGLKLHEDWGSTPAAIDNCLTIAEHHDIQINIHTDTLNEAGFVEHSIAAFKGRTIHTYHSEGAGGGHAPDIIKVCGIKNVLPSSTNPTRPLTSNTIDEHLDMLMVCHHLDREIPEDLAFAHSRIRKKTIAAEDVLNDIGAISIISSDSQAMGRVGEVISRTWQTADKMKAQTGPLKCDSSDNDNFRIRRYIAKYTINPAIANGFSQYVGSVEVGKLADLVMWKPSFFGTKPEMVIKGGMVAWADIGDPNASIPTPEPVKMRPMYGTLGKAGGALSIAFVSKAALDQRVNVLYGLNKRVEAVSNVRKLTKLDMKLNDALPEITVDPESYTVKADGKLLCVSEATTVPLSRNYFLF
- runParameters: 25 µg/mL
assayMetric: %age Activity at 25 μg (urease inhibition) (%)
Reply numerically in %, unit not repeated.

Example entries and their recorded answers appear below.
Output reported %age Activity at 25 μg (urease inhibition) of the compound COc1ccc(-c2csc(C=O)c2)cc1 [2f] on urease enzyme (Canavalia ensiformis, UniProt P07374).
42.3

Output reported %age Activity at 25 μg (urease inhibition) of the compound O=Cc1cc(-c2ccc(Cl)c(Cl)c2)cs1 [2h] on urease enzyme (Canavalia ensiformis, UniProt P07374).
44

Output reported %age Activity at 25 μg (urease inhibition) of the compound Cc1ccc(-c2csc(C=O)c2)cc1 [2e, 4-p-Tolylthiophene-2-carbaldehyde] on urease enzyme (Canavalia ensiformis, UniProt P07374).
44.5

Output reported %age Activity at 25 μg (urease inhibition) of the compound O=Cc1cc(-c2ccccc2)cs1 [2a, 4-Phenylthiophene-2-carbaldehyde] on urease enzyme (Canavalia ensiformis, UniProt P07374).
45

Output reported %age Activity at 25 μg (urease inhibition) of the compound Cc1ccc(-c2csc(C=O)c2)s1 [2j, 5-Methyl-2,3-bisthiophene-5-carbaldehyde] on urease enzyme (Canavalia ensiformis, UniProt P07374).
2

Output reported %age Activity at 25 μg (urease inhibition) of the compound Cc1cc(C)cc(-c2csc(C=O)c2)c1 [2g] on urease enzyme (Canavalia ensiformis, UniProt P07374).
42.5

Continuing:
Output reported %age Activity at 25 μg (urease inhibition) of the compound O=Cc1cc(-c2ccc(Cl)s2)cs1 [2c] on urease enzyme (Canavalia ensiformis, UniProt P07374).
44

Output reported %age Activity at 25 μg (urease inhibition) of the compound O=Cc1cc(-c2ccc(F)c(Cl)c2)cs1 [2i] on urease enzyme (Canavalia ensiformis, UniProt P07374).
46.2

Output reported %age Activity at 25 μg (urease inhibition) of the compound O=Cc1cc(-c2cc(C(F)(F)F)cc(C(F)(F)F)c2)cs1 [2b] on urease enzyme (Canavalia ensiformis, UniProt P07374).
35

Output reported %age Activity at 25 μg (urease inhibition) of the compound N#Cc1cc(-c2csc(C=O)c2)cc(C(F)(F)F)c1 [2d] on urease enzyme (Canavalia ensiformis, UniProt P07374).
37

----------
- targetOrSystem: urease enzyme (Canavalia ensiformis, UniProt P07374)
- runParameters: 50 µg/mL
assayMetric: %age Activity at 50 μg (urease inhibition) (%)
Reply numerically in %, unit not repeated.

Example entries and their recorded answers appear below.
Entry Cc1cc(C)cc(-c2csc(C=O)c2)c1 needs its %age Activity at 50 μg (urease inhibition) filled in; supply it.
87.2

Entry O=Cc1cc(-c2ccc(Cl)s2)cs1 needs its %age Activity at 50 μg (urease inhibition) filled in; supply it.
87.8

Entry Cc1ccc(-c2csc(C=O)c2)s1 needs its %age Activity at 50 μg (urease inhibition) filled in; supply it.
9.7

Entry COc1ccc(-c2csc(C=O)c2)cc1 needs its %age Activity at 50 μg (urease inhibition) filled in; supply it.
80.2

Entry O=Cc1cc(-c2ccc(F)c(Cl)c2)cs1 needs its %age Activity at 50 μg (urease inhibition) filled in; supply it.
90.6

Continuing:
Entry O=Cc1cc(-c2ccc(Cl)c(Cl)c2)cs1 needs its %age Activity at 50 μg (urease inhibition) filled in; supply it.
86.4

Entry O=Cc1cc(-c2ccccc2)cs1 needs its %age Activity at 50 μg (urease inhibition) filled in; supply it.
86.9

Entry N#Cc1cc(-c2csc(C=O)c2)cc(C(F)(F)F)c1 needs its %age Activity at 50 μg (urease inhibition) filled in; supply it.
88.7

Entry O=Cc1cc(-c2cc(C(F)(F)F)cc(C(F)(F)F)c2)cs1 needs its %age Activity at 50 μg (urease inhibition) filled in; supply it.
87.0

Entry Cc1ccc(-c2csc(C=O)c2)cc1 needs its %age Activity at 50 μg (urease inhibition) filled in; supply it.
76.5
